These measurements were taken from BigSolDB 2.1.

- test_conditions: in n-propanol, 318.15 K
measurement_label: solubility (mole fraction)
I only need the number, thanks.

Notebook: O=C(c1ccccc1)c1ccc(Cl)cc1 , solubility (mole fraction) read as 0.0829

---

- test_conditions: in ethyl acetate, 308.15 K
measurement_label: solubility (mole fraction)

Notebook: O=C(c1ccccc1)c1ccc(Cl)cc1 , solubility (mole fraction) read as 0.294

---

- test_conditions: in methanol, 293.15 K
measurement_label: solubility (mole fraction)
I only need the number, thanks.

Notebook: O=C(c1ccccc1)c1ccc(Cl)cc1 , solubility (mole fraction) read as 0.00943

---

- test_conditions: in isopropanol, 303.15 K
measurement_label: solubility (mole fraction)
I only need the number, thanks.

Notebook: O=C(c1ccccc1)c1ccc(Cl)cc1 , solubility (mole fraction) read as 0.0223
